target: GSK3α (Homo sapiens, UniProt P49840)
Sequence (P49840 whole entry): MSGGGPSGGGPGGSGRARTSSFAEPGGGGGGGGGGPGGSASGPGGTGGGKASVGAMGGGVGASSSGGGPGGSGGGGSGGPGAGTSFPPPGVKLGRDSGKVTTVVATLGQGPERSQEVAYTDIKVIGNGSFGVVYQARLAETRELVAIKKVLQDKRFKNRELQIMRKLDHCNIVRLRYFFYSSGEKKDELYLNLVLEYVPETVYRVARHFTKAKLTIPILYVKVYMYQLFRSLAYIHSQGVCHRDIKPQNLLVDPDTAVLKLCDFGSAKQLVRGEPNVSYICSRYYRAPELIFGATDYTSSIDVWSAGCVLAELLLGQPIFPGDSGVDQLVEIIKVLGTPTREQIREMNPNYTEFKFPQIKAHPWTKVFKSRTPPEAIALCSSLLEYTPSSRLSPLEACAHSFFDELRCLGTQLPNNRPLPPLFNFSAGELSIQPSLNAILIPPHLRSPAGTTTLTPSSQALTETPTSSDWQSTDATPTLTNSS
protocol: biochemical
pIC50: −log10 of the molar value.
result-type: pIC50

Reference set (5 entries):
CC(C)(C)Cc1[nH]nc2c1[C@@]1(CCOc3ccccc31)C1=C(CC(C)(C)CC1=O)N2 (stereo in doubt)	6.86
CC1(C)CC(=O)C2=C(C1)Nc1n[nH]cc1C2(C)c1cccc(F)c1 (racemic)	6.62
CCC(C)(C)Cc1[nH]nc2c1[C@]1(CCc3cc(F)ccc31)C1=C(CC(C)(C)CC1=O)N2 (stereo in doubt)	5.32
CC(C)c1[nH]nc2c1[C@@]1(CCc3ccccc31)C1=C(CC(C)(C)CC1=O)N2 (stereo in doubt)	7.09
CC(C)(C)Cc1[nH]nc2c1[C@@]1(CCc3ccccc31)C1=C(CC(C)(C)CC1=O)N2 (stereo in doubt)	7.55

[I] CC(C)(C)Cc1[nH]nc2c1C(C)(c1ccc(F)cc1)C1=C(CC(C)(C)CC1=O)N2 (racemic)
[II] CC(C)(C)Cc1[nH]nc2c1[C@]1(CCOc3ccccc31)C1=C(CC(C)(C)CC1=O)N2 (stereo in doubt)
Lab log: flag the item ( I or II ) with the smaller pIC50 figure. Pick one; state its label. II

---

target: CDK2/CycE1 (Homo sapiens, UniProt P24941)
measurement-context: read-out: IC50 CDK2/CycE1
result-type: IC50 (µM)
// units = µM; emit number, no label

What value of measured IC50 is listed for CC[C@@]1(c2ccccc2)C2=C(CC(C)(C)CC2=O)Nc2n[nH]cc21 ? 9.43

---

target: GSK3β (Homo sapiens, UniProt P49841)
Sequence (P49841 whole entry): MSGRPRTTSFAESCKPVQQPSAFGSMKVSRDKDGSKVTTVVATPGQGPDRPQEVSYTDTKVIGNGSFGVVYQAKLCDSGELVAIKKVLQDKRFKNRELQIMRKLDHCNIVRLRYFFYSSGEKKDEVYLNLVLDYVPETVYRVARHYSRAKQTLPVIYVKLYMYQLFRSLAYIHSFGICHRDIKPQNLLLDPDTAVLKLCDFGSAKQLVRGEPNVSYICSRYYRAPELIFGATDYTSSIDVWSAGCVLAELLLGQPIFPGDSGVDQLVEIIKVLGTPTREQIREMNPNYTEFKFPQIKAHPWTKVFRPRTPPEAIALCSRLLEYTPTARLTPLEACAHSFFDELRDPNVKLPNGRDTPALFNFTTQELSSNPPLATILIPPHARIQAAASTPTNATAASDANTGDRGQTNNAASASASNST
measurement-context: Caliper assay; GSK3β over GSK3α
result-type: GSK3β fold selectivity (fold)

Reference set (5 entries):
COc1ccccc1[C@@]1(C)C2=C(CC(C)(C)CC2=O)Nc2n[nH]c(C3CC(F)(F)C3)c21 (stereo in doubt)	2.1
COc1ccccc1[C@@H]1C2=C(CC(C)(C)CC2=O)Nc2n[nH]c(C3CC(F)(F)C3)c21 (stereo in doubt)	8.3
CC(C)(C)Cc1[nH]nc2c1C(C)(c1ccccc1)C1=C(CC(C)(C)CC1=O)N2 (racemic)	9.5
COc1ccccc1[C@]1(C)C2=C(CC(C)(C)CC2=O)Nc2n[nH]c(C3CC(F)(F)C3)c21 (stereo in doubt)	3.7
CC1(C)CC(=O)C2=C(C1)Nc1n[nH]c(C3CCCCC3)c1[C@]2(C)c1ccccc1 (stereo in doubt)	2.4

[a] CC(C)c1[nH]nc2c1[C@](C)(c1ccccc1)C1=C(CC(C)(C)CC1=O)N2 (stereo in doubt)
[b] CC(C)(C)Cc1[nH]nc2c1C(C)(c1ccc(F)cc1)C1=C(CC(C)(C)CC1=O)N2 (racemic)
Lab log: flag the item ( a or b ) with the smaller GSK3β fold selectivity figure. Pick one; state its label. a

[P] CC(C)(C)Cc1[nH]nc2c1[C@](C)(c1ccc(F)cc1)C1=C(CC(C)(C)CC1=O)N2 (stereo in doubt)
[Q] CC(C)(C)Cc1[nH]nc2c1[C@@]1(CCc3ccccc31)C1=C(CC(C)(C)CC1=O)N2 (stereo in doubt)
[R] CC1(C)CC(=O)C2=C(C1)Nc1n[nH]c(Cc3ccccc3)c1[C@]2(C)c1ccccc1 (stereo in doubt)
[S] CC(C)Cc1[nH]nc2c1[C@](C)(c1ccccc1)C1=C(CC(C)(C)CC1=O)N2 (stereo in doubt)
Order the records by GSK3β fold selectivity, with each subsequent value no larger than the one before. I would appreciate it if you listed the labels in the requested order. Q, P, S, R
(Q: 16.5 fold, P: 10.2 fold, S: 5.8 fold, R: 3.3 fold)

[a] CC1(C)CC(=O)C2=C(C1)Nc1n[nH]c(C3CC(F)(F)C3)c1[C@]2(C)c1ccccc1 (stereo in doubt)
[b] CC1(C)CC(=O)C2=C(C1)Nc1n[nH]c(C3CCCC3)c1[C@]2(C)c1ccccc1 (stereo in doubt)
[c] COc1ccccc1C1C2=C(CC(C)(C)CC2=O)Nc2n[nH]c(C3CC(F)(F)C3)c21 (racemic)
[d] CC1(C)CC(=O)C2=C(C1)Nc1n[nH]c(C3CC(F)(F)C3)c1C2(C)c1cccc(C(F)(F)F)c1 (racemic) [Compound 309]
Order the records by GSK3β fold selectivity, with each subsequent value no larger than the one before. I would appreciate it if you listed the labels in the requested order. c, a, b, d
(c: 13.1 fold, a: 7.8 fold, b: 2.9 fold, d: 1.6 fold)
